system: blackgrass; assay: Test B pre/postemergence blackgrass; format: in vivo, Alopecurus myosuroides; conditions: Rate 500 g/ha, Postemergence; 0 to 10 scale (0 no effect, 10 complete control)
value_type: Blackgrass plant response rating

| structure | numeric_value |
| --- | --- |
| Cc1ccccc1-n1c(=O)on(C(=O)N(c2ccc(C(F)(F)F)cc2)C(C)C)c1=O | 0 |
| Cc1c(Cl)cccc1-n1c(=O)on(C(=O)N(c2ccc(F)cc2)C(C)C)c1=O | 0 |
| Cc1ccccc1-n1c(=O)on(C(=O)N(c2ccc([N+](=O)[O-])cc2)C(C)C)c1=O | 0 |
| Cc1cccc(C)c1-n1c(=O)on(C(=O)N(c2ccc(F)cc2)C(C)C)c1=O | 3 |
